Could you please report measured pIC50 for the items listed next?
- Tested on: U-937 renal cancer cells
- ASSAY_REMARKS: MTT cytotoxicity assay, U-937;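 also: Six-dose MTT colorimetric assay on cell monolayers, formazan absorbance read at 560 nm with 620 nm background removed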
- Type: cell-based
- PARTICULARS: Homo sapiens, U-937; MTT; mean of three independent experiments ± SD; read-out: IC50 Value U-937
Answers are plain numbers, as −log10 of the molar value.

# example entries with known answers
- COMPOUND: "Nc1c(/N=C(/CBr)c2ccc([N+](=O)[O-])cc2)c(=O)[nH]c(=O)n1Cc1ccccc1 [Compound 5b]"
  pIC50: 5.20
- COMPOUND: "CN(Cc1cnc2nc(N)nc(N)c2n1)c1ccc(C(=O)N[C@@H](CCC(=O)O)C(=O)O)cc1 [Methotrexate, reference compound]"
  pIC50: 5.91
- COMPOUND: "Cn1c(SCC(=O)c2ccccc2)nc(=O)c(/N=C(/CBr)c2ccccc2)c1N [Compound 7]"
  pIC50: 5.73
- COMPOUND: "Cn1c(SCC(=O)c2ccc([N+](=O)[O-])cc2)nc(=O)c(/N=C(/CBr)c2ccc([N+](=O)[O-])cc2)c1N [Compound 8]"
  pIC50: 5.11
- COMPOUND: "Nc1c(/N=C(/CBr)c2ccccc2)c(=O)[nH]c(=O)n1Cc1ccccc1 [Compound 4]"
  pIC50: 6.02
- COMPOUND: "CCn1c(N)c(/N=C(/CBr)c2ccc(OC)cc2)c(=O)[nH]c1=O [Compound 6a]"
  pIC50: 6.01

We next turn to a different compound, shown below.
Task: GET pIC50 where system = U-937 renal cancer cells and item = COc1ccc(-c2cnc3c(n2)c(=O)[nH]c(=O)n3Cc2ccccc2)cc1 [Compound 9]
Result: 5.35

* * *

Could you please report measured %inh for the items listed next?
- ASSAY_SYSTEM: human recombinant PLK1 (Homo sapiens, UniProt P53350)
- Sequence (P53350 whole entry): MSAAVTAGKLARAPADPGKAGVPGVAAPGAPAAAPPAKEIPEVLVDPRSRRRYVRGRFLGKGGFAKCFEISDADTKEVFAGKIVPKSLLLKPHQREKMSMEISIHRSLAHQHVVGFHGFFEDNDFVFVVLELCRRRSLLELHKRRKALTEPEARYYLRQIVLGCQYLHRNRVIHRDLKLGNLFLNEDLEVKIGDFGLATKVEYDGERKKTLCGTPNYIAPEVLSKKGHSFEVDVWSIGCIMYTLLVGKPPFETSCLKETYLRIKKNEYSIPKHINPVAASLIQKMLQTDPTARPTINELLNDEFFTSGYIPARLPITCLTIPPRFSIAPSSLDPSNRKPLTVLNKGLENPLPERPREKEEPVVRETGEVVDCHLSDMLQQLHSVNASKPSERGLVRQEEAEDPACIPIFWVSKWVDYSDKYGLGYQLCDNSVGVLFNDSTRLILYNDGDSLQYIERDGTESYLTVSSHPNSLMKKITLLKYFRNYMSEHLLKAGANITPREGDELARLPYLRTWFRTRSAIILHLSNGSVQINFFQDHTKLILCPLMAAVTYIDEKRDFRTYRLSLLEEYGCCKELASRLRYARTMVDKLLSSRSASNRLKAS
- ASSAY_REMARKS: PLK1 inhibitory activity assay (ADP-Glo Kinase Assay)
- Type: biochemical
- PARTICULARS: PLK1 Lab Report; conc 0.1 (unit not given)
Numbers only, in %.

# example entries with known answers
- MOLECULE: "COc1ccc(/C(CBr)=N\\c2c(N)n(Cc3ccccc3Cl)c(=O)[nH]c2=O)cc1 [Compound 6b]"
  ASSAY_SYSTEM: "human recombinant PLK1 (Homo sapiens, UniProt P53350)"
  %inh / %: 40
- MOLECULE: "CC[C@@H]1C(=O)N(C)c2cnc(Nc3ccc(C(=O)N[C@H]4CC[C@H](N5CCN(CC6CC6)CC5)CC4)cc3OC)nc2N1C(C)C [Volasertib, reference compound]"
  ASSAY_SYSTEM: "human recombinant PLK1 (Homo sapiens, UniProt P53350)"
  %inh / %: 58
- MOLECULE: "CCn1c(N)c(/N=C(/CBr)c2ccc(OC)cc2)c(=O)[nH]c1=O [Compound 6a]"
  ASSAY_SYSTEM: "human recombinant PLK1 (Homo sapiens, UniProt P53350)"
  %inh / %: 42
- MOLECULE: "Cn1c(SCC(=O)c2ccccc2)nc(=O)c(/N=C(/CBr)c2ccccc2)c1N [Compound 7]"
  ASSAY_SYSTEM: "human recombinant PLK1 (Homo sapiens, UniProt P53350)"
  %inh / %: 60

We next turn to a different molecule, shown below.
Task: For the molecule Nc1c(/N=C(/CBr)c2ccccc2)c(=O)[nH]c(=O)n1Cc1ccccc1 [Compound 4] , give its reported %inh.
Result: 46

* * *

- ASSAY_SYSTEM: human recombinant PLK1 (Homo sapiens, UniProt P53350)
- ASSAY_REMARKS: PLK1 inhibitory activity assay (ADP-Glo Kinase Assay)
- Format: biochemical
- PARTICULARS: PLK1 Lab Report; conc 1 (unit not given)
Could you please report measured %inh for the items listed next?
Numbers only, in %.

# example entries with known answers
- COMPOUND: "Cn1c(SCC(=O)c2ccccc2)nc(=O)c(/N=C(/CBr)c2ccccc2)c1N"
  %inh (%): 76
- COMPOUND: "CC[C@@H]1C(=O)N(C)c2cnc(Nc3ccc(C(=O)N[C@H]4CC[C@H](N5CCN(CC6CC6)CC5)CC4)cc3OC)nc2N1C(C)C [Volasertib, reference compound]"
  %inh (%): 76
- COMPOUND: "COc1ccc(/C(CBr)=N\\c2c(N)n(Cc3ccccc3Cl)c(=O)[nH]c2=O)cc1"
  %inh (%): 65
- COMPOUND: "Nc1c(/N=C(/CBr)c2ccccc2)c(=O)[nH]c(=O)n1Cc1ccccc1"
  %inh (%): 70

We next turn to a different compound, shown below.
Task: For the compound CCn1c(N)c(/N=C(/CBr)c2ccc(OC)cc2)c(=O)[nH]c1=O , give its reported %inh.
Result: 65

* * *

Could you please report measured Toxicity % for the items listed next?
- Tested on: HT-29 colorectal adenocarcinoma cells
- ASSAY_REMARKS: MTT cytotoxicity assay, HT-29
- Assay type: cell-based
- PARTICULARS: HT29; MTT; 5 uM
Numbers only, in %.

- MOLECULE: "Cn1c(SCC(=O)c2ccc([N+](=O)[O-])cc2)nc(=O)c(/N=C(/CBr)c2ccc([N+](=O)[O-])cc2)c1N [Compound 8]"
  UNIT_LABEL: "%"
  Toxicity %: 50.34

Please report Toxicity % for every entry that follows.
1. Nc1c(/N=C(/CBr)c2ccccc2)c(=O)[nH]c(=O)n1Cc1ccccc1 [Compound 4]
2. Cn1c(=S)[nH]c(=O)c2nc(-c3ccccc3)c(-c3ccccc3)nc21 [Compound 10]
3. CCn1c(N)c(/N=C(/CBr)c2ccc([N+](=O)[O-])cc2)c(=O)[nH]c1=O [Compound 5a]
4. COc1ccc(/C(CBr)=N\c2c(N)n(Cc3ccccc3Cl)c(=O)[nH]c2=O)cc1 [Compound 6b]
5. Cn1c(SCC(=O)c2ccccc2)nc(=O)c(/N=C(/CBr)c2ccccc2)c1N [Compound 7]
6. COc1ccc(-c2cnc3c(n2)c(=O)[nH]c(=O)n3Cc2ccccc2)cc1 [Compound 9]

Result:
[92.76, 41.09, 83.29, 95.61, 93.28, 68.22]

* * *

- ASSAY_SYSTEM: BRD4 (BD2) (Homo sapiens)
- Construct: BRD4 (BD2) should be thawed on ice; purchased
- ASSAY_REMARKS: BRD4 inhibitory activity assay (AlphaLISA Bromodomain Assay)
- Assay type: binding
- PARTICULARS: mean of three independent experiments; read-out: BRD4 IC50 ± SD
Could you please report measured IC50 for the items listed next?
Numbers only, in nM.

- SMILES: "COc1ccc(-c2cnc3c(n2)c(=O)[nH]c(=O)n3Cc2ccccc2)cc1"
  ASSAY_SYSTEM: "BRD4 (BD2) (Homo sapiens)"
  IC50 / nM: 179
- SMILES: "CCn1c(N)c(/N=C(/CBr)c2ccc(OC)cc2)c(=O)[nH]c1=O"
  ASSAY_SYSTEM: "BRD4 (BD2) (Homo sapiens)"
  IC50 / nM: 141
- SMILES: "COc1ccc(/C(CBr)=N\\c2c(N)n(Cc3ccccc3Cl)c(=O)[nH]c2=O)cc1"
  ASSAY_SYSTEM: "BRD4 (BD2) (Homo sapiens)"
  IC50 / nM: 77
- SMILES: "Cn1c(SCC(=O)c2ccccc2)nc(=O)c(/N=C(/CBr)c2ccccc2)c1N"
  ASSAY_SYSTEM: "BRD4 (BD2) (Homo sapiens)"
  IC50 / nM: 42

We next turn to a different compound, shown below.
Task: GET IC50 where system = BRD4 (BD2) (Homo sapiens) and item = Nc1c(/N=C(/CBr)c2ccccc2)c(=O)[nH]c(=O)n1Cc1ccccc1
Result: 29

* * *

- ASSAY_SYSTEM: BRD4 (BD2) (Homo sapiens, UniProt O60885)
- Construct: BRD4 (BD2) should be thawed on ice; purchased
- ASSAY_REMARKS: BRD4 inhibitory activity assay (AlphaLISA Bromodomain Assay)
- Format: binding
EXPERIMENTAL_READOUT: IC50 (nM)
Numbers only, in nM.

Task: For the compound CC[C@@H]1C(=O)N(C)c2cnc(Nc3ccc(C(=O)N[C@H]4CC[C@H](N5CCN(CC6CC6)CC5)CC4)cc3OC)nc2N1C(C)C [Volasertib, reference compound] , give its reported IC50.
Result: 17

* * *

- ASSAY_SYSTEM: BRD4 (BD2) (Homo sapiens, UniProt O60885)
- Construct: BRD4 (BD2) should be thawed on ice; purchased
- ASSAY_REMARKS: BRD4 inhibitory activity assay (AlphaLISA Bromodomain Assay);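 also: in vitro inhibition of recombinant BRD4 BD2 bromodomain binding to a BET bromodomain ligand, read by AlphaLISA proximity signal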
- Type: binding
- PARTICULARS: BRD4 Lab Report; conc 1 (unit not given)
Could you please report measured %inh for the items listed next?
Answers are plain numbers, in %.

- COMPOUND: "Nc1c(/N=C(/CBr)c2ccccc2)c(=O)[nH]c(=O)n1Cc1ccccc1 [Compound 4]"
  %inh [%]: 75

Please report %inh for every entry that follows.
1. COc1ccc(/C(CBr)=N\c2c(N)n(Cc3ccccc3Cl)c(=O)[nH]c2=O)cc1 [Compound 6b]
2. CCn1c(N)c(/N=C(/CBr)c2ccc(OC)cc2)c(=O)[nH]c1=O [Compound 6a]
3. Cn1c(SCC(=O)c2ccccc2)nc(=O)c(/N=C(/CBr)c2ccccc2)c1N [Compound 7]

Result:
67
73
74
